Measured cell viability, listed per entry.
System: NOMO1
assay text: cell viability relative to DMSO control; higher = less cytotoxic
run parameters: HPLM + 10% dialyzed FBS; 48 h; 0.569 µM
value kind: cell viability (%)

* CN1CCN(CCCN2c3ccccc3Sc3ccc(Cl)cc32)CC1.O=C(O)/C=C\C(=O)O.O=C(O)/C=C\C(=O)O | 106
* Cc1cnc(Nc2ccc(N3CCN(C)CC3)cc2)nc1Nc1cccc([S+](=O)([O-])NC(C)(C)C)c1 | 95.7
* O=C(NCC1CCOCC1)c1cnc(Nc2ccc(Cl)cc2Cl)nc1C(F)(F)F | 122
* COc1cc2c(Nc3ccc(Cl)c(Cl)c3F)ncnc2cc1OC[C@@H]1C[C@@H]2CN(C)C[C@@H]2C1 | 93.3
* CCOC(=O)O[C@]1(C(=O)OCCl)CC[C@H]2[C@@H]3CCC4=CC(=O)C=C[C@]4(C)[C@H]3[C@@H](O)C[C@@]21C | 110
* Oc1c(Cl)cc(Cl)c2cccnc12 | 113
* NCCc1ccc(O)c(O)c1 | 131
* CCOCC(O)COc1ccc(NC(=O)CC[S+](C)C)cc1 (stereo unspecified) | 110
* COc1cc2ncnc(Nc3cccc(Cl)c3)c2cc1OC | 57
* OCCN(CCO)c1nc(N2CCCCC2)c2nc(N(CCO)CCO)nc(N3CCCCC3)c2n1 | 120
* CC[C@@H]1C(=O)N(C)c2cnc(Nc3ccc(C(=O)NC4CCN(C)CC4)cc3OC)nc2N1C1CCCC1 | 57.4
* CS[C@H]1SC[C@@H]2C(=O)N(C)[C@H](C(C)C)C(=O)OC[C@H](NC(=O)c3cnc4ccccc4n3)C(=O)N[C@H](C)C(=O)N(C)[C@H]1C(=O)N(C)[C@H](C(C)C)C(=O)OC[C@H](NC(=O)c1cnc3ccccc3n1)C(=O)N[C@H](C)C(=O)N2C | 7.01
* COc1ccc(C2(C#N)CCC(C(=O)O)CC2)cc1OC1CCCC1 (stereo unspecified) | 113
* CN1CCC(CC1)=C2C3=C(C=CC=C3)\C=C/C4=C2C=CC=C4 | 147
* CC(C)(Sc1ccc(CCN(CCCCC2CCCCC2)C(=O)NC2CCCCC2)cc1)C(=O)O | 118
* CC(S)C(=O)NCC(=O)O (stereo unspecified) | 108
* N[C@@H](Cc1ccc(O)c(O)c1)C(=O)O | 122
* Clc1ccccc1C(c1ccccc1)(c1ccccc1)n1ccnc1 | 123
* CC1=C(/C=C/C(C)=C/C=C/C(C)=C/C(=O)O)C(C)(C)CCC1 | 110
* CC(C)CC(N(C)C)C1(c2ccc(Cl)cc2)CCC1 (stereo unspecified) | 116
* NNc1nncc2ccccc12 | 134
* C[C@H](NCc1ccc(OCc2cccc(F)c2)cc1)C(N)=O | 124
* CCCCCCCCCCCC/1=C(O)/C(=O)/C=C(O)\C1=O | 51.1
* CCC(C1CCC(C)C(O1)C(C)C(O)C(C)C(=O)C(CC)C2OC\3(O[C@]4(CC[C@@](C)(O4)C5CC[C@@](O)(CC)C(C)O5)C(O)\C=C3)C(C)CC2C)C([O-])=O (stereo partly specified) | 117
* Oc1ccc([C@@H]2Oc3ccc(O)cc3[C@@H]3CCC[C@@H]32)cc1 | 90.5
* CC[C@H]1CN2CCc3cc(OC)c(OC)cc3[C@@H]2C[C@@H]1C[C@H]1NCCc2cc(OC)c(OC)cc21 | 54.7
* NC(CO)C(=O)NNCc1ccc(O)c(O)c1O (stereo unspecified) | 91.6
* CN(C)CCc1c[nH]c2ccc(C[S+](=O)([O-])N3CCCC3)cc12 | 102
* N#CC[C@H](C1CCCC1)n1cc(-c2ncnc3[nH]ccc23)cn1 | 85.1
* CC(C)[N+]1(C)C2CCC1CC(OC(=O)C(CO)c1ccccc1)C2.O.[Br-] (stereo unspecified) | 148
* NC[C@H]1O[C@H](O[C@H]2[C@H](O)[C@@H](O[C@H]3O[C@H](CO)[C@@H](O)[C@H](N)[C@H]3O)[C@H](N)C[C@@H]2N)[C@H](N)C[C@@H]1O | 112

====

Tested on: P12-Ichikawa
assay text: cell viability relative to DMSO control; higher = less cytotoxic
run parameters: HPLM + 10% dialyzed FBS; 48 h; 0.0632 µM
Parameter: cell viability. Scope: all listed entries.
value kind: cell viability (%)

• Cc1nc(N)ncc1-c1nc(N2CCOCC2)c2sc(C(C)(C)O)cc2n1 = 83
• OC[C@H]1OC(OC2=CC3=C(C(=C2)O)C(=O)\C(=C/O3)C4=CC=C(O)C=C4)[C@H](O)[C@@H](O)[C@@H]1O (stereo not given in full) = 86.2
• O=C(O)Cc1cccc(OCCCN(Cc2cccc(C(F)(F)F)c2Cl)CC(c2ccccc2)c2ccccc2)c1 = 119
• CC(C)(C)C1=CC(=C(NC(=O)C/2=C/NC3=C(C=CC=C3)C2=O)C=C1O)C(C)(C)C = 121
• O=C(NCC1CCOCC1)c1cnc(Nc2ccc(Cl)cc2Cl)nc1C(F)(F)F = 109
• CCN(CC)CCCC(C)Nc1nc(C)cc(Nc2ccc3nc(C)cc(N)c3c2)n1 (stereo not given) = 122
• CC1=C(/C=C/C(C)=C/C=C/C(C)=C/C(=O)O)C(C)(C)CCC1 = 127
• C[C@H]1Oc2cc(cnc2N)-c2c(nn(C)c2C#N)CN(C)C(=O)c2ccc(F)cc21 = 120
• Cc1ccc(-c2cc(C(F)(F)F)nn2-c2ccc([S+](N)(=O)[O-])cc2)cc1 = 120
• C1COC(NC(C2CC2)C2CC2)=N1 = 88.9
• Clc1ccccc1C(c1ccccc1)(c1ccccc1)n1ccnc1 = 108
• Nc1nc(NCCNc2ncc(-n3ccnc3)c(-c3ccc(Cl)cc3Cl)n2)ccc1[N+](=O)[O-] = 126
• O=C1CCCC(=O)C1C(=O)c1ccc(C(F)(F)F)cc1[N+](=O)[O-] = 112
• CC[C@H]1CN2CCc3cc(OC)c(OC)cc3[C@@H]2C[C@@H]1C[C@H]1NCCc2cc(OC)c(OC)cc21 = 92.5
• Cc1ccc(/C=N/NC(=O)c2ccccc2Oc2ccccc2)o1 = 100

====

Test system: P12-Ichikawa
assay text: cell viability relative to DMSO control; higher = less cytotoxic
run parameters: RPMI 5 mM glucose + 10% FBS; 48 h; 0.0211 µM
Reported cell viability values follow for various molecules
value kind: cell viability (%)

- CC(C)c1c(C(=O)Nc2ccccc2)c(-c2ccccc2)c(-c2ccc(F)cc2)n1CC[C@@H](O)C[C@@H](O)CC(=O)[O-]: 94.7
- C[C@@H](N)C1CC[C@@H](CC1)C(=O)NC2=CC=NC=C2 (stereo partly drawn): 125
- OCCN(CCO)c1nc(N2CCCCC2)c2nc(N(CCO)CCO)nc(N3CCCCC3)c2n1: 111
- Nc1nc(N)c(N=O)c(OCC2CCCCC2)n1: 93
- Oc1ccc2ccccc2c1SSc1c(O)ccc2ccccc12: 107
- NC[C@H]1O[C@H](O[C@H]2[C@H](O)[C@@H](O[C@H]3O[C@H](CO)[C@@H](O)[C@H](N)[C@H]3O)[C@H](N)C[C@@H]2N)[C@H](N)C[C@@H]1O: 116
- C1CN\2C[C@@H](\N=C2S1)C3=CC=CC=C3: 93.4
- CC(C)(O)C(=O)Nc1ccc([N+](=O)[O-])c(C(F)(F)F)c1: 115
- CO[C@@H]1[C@@H](O)[C@H](O)[C@@H](n2c3c(Cl)cccc3c3c4c(c5c6cccc(Cl)c6[nH]c5c32)C(=O)NC4=O)O[C@H]1CO: 103
- CS[C@H]1SC[C@@H]2C(=O)N(C)[C@H](C(C)C)C(=O)OC[C@H](NC(=O)c3cnc4ccccc4n3)C(=O)N[C@H](C)C(=O)N(C)[C@H]1C(=O)N(C)[C@H](C(C)C)C(=O)OC[C@H](NC(=O)c1cnc3ccccc3n1)C(=O)N[C@H](C)C(=O)N2C: 44.9
- O=C1N\C=N/C2=C1C=N[NH]2: 87.9
- CC(C)(C)C1=CC(=C(NC(=O)C/2=C/NC3=C(C=CC=C3)C2=O)C=C1O)C(C)(C)C: 133
- Cc1cnc(Nc2ccc(N3CCN(C)CC3)cc2)nc1Nc1cccc([S+](=O)([O-])NC(C)(C)C)c1: 120
- Oc1ccc(-c2ccc(-c3cc(Nc4cccc(CNC5CC5)c4)[nH]n3)cc2)c(O)c1: 114
- CC(S)C(=O)NCC(=O)O (stereo not drawn): 119
- Oc1c(Cl)cc(Cl)c2cccnc12: 107
- COC(=O)Nc1nc2ccc([S+]([O-])c3ccccc3)cc2[nH]1 (stereo not drawn): 119
- C[N+]1(C)[C@@H]2CC(OC(=O)C(O)(c3cccs3)c3cccs3)C[C@H]1[C@@H]1O[C@@H]12 (stereo partly drawn): 111
- N#C/C(=C1/Nc2ccccc2S1)c1ccnc(OCc2ccc(CN3CCOCC3)cc2)n1: 109
- OC[C@H]1OC(OC2=CC3=C(C(=C2)O)C(=O)\C(=C/O3)C4=CC=C(O)C=C4)[C@H](O)[C@@H](O)[C@@H]1O (stereo partly drawn): 88.7
- C[N]1C=C(C=N1)C2=CC=C3N=CC\4=C(N(C(=O)\C=C4)C5=CC6=C(CCN6C(=O)C=C)C=C5)C3=C2: 114
- CC(C)(C)OC(=O)Nc1ccc(-c2cc(C(=O)NCCCCCCC(=O)NO)no2)cc1: 88.1
- Cc1c(C(=O)c2cccc3ccccc23)c2cccc3c2n1[C@H](CN1CCOCC1)CO3: 78.4
- N#Cc1ccnc(N2C(=O)CC[C@H]2C(=O)N(c2cncc(F)c2)[C@H](C(=O)NC2CC(F)(F)C2)c2ccccc2Cl)c1: 93.1
- O=C1CCCC(=O)C1C(=O)c1ccc(C(F)(F)F)cc1[N+](=O)[O-]: 123
- COc1cc(OC)c(C(=O)CCCN2CCCC2)c(OC)c1: 130
- CCCCc1nc2cc(/C=C/C(=O)NO)ccc2n1CCN(CC)CC: 83.5
- COc1ccc(C2(C#N)CCC(C(=O)O)CC2)cc1OC1CCCC1 (stereo not drawn): 95.2

Provenance of the data: the supplement of paper PMC11451515
